# Tested on: vancomycin-resistant Enterococcus (VRE) clinical isolates
# Measurement Description: Broth microdilution MIC, clinical VRE isolates
# Format: cell-based, E. faecium
# Assay Conditions: Enterococcus; clinical isolate 25,498 VRE; 24 h, 0.08–40 μM; read-out: MIC 25,498 VRE
Recorded Endpoint: MIC

>>> test_value("N[C@@H]1[C@@H](OCc2ccccc2)[C@H](OCc2ccccc2)[C@@H](COCc2ccccc2)O[C@H]1c1cnccn1 [Complex 3d]")
"> 40 µM"
>>> test_value("N[C@@H]1[C@@H](OCc2ccccc2)[C@H](OCc2ccccc2)[C@@H](COCc2ccccc2)O[C@H]1c1ccccn1 [Complex 3a]")
"> 40 µM"
>>> test_value("N[C@@H]1[C@@H](OC(=O)c2ccccc2)[C@H](OC(=O)c2ccccc2)[C@@H](COC(=O)c2ccccc2)O[C@H]1c1ccc2ccccc2n1 [Complex 7e]")
"> 40 µM"
>>> test_value("N[C@@H]1[C@@H](OC(=O)c2ccccc2)[C@H](OC(=O)c2ccccc2)[C@@H](COC(=O)c2ccccc2)O[C@H]1c1ccccn1 [Complex 7a]")
"> 40 µM"
>>> test_value("N[C@@H]1[C@@H](OC(=O)c2ccccc2)[C@H](OC(=O)c2ccccc2)[C@@H](COC(=O)c2ccccc2)O[C@H]1c1cccnn1 [Complex 7b]")
"> 40 µM"

* * *

# Tested on: methicillin-resistant Staphylococcus aureus (MRSA) clinical isolates
# Measurement Description: Broth microdilution MIC, clinical MRSA isolates
# Format: cell-based
# Assay Conditions: clinical isolate 24,408 MRSA; 24 h, 0.08–40 μM; read-out: MIC 24,408 MRSA
Recorded Endpoint: MIC (µM)

>>> test_value("Cc1ccc(C(C)C)cc1.F[P-](F)(F)(F)(F)F.NC1C(c2cccnn2)OC(COC(=O)c2ccccc2)C(OC(=O)c2ccccc2)C1OC(=O)c1ccccc1.[Cl][Ru+] (mixture of isomers) [Ru-7b]")
10
>>> test_value("Cc1ccc(C(C)C)cc1.F[P-](F)(F)(F)(F)F.N[C@@H]1[C@@H](OC(=O)c2ccccc2)[C@H](OC(=O)c2ccccc2)[C@@H](COC(=O)c2ccccc2)O[C@H]1c1ccccn1.[Cl][Ru+] [Ru-7a]")
5
>>> test_value("Cc1ccc(C(C)C)cc1.F[P-](F)(F)(F)(F)F.N[C@@H]1[C@@H](OCc2ccccc2)[C@H](OCc2ccccc2)[C@@H](COCc2ccccc2)O[C@H]1c1cnccn1.[Cl][Os+] [Os-3d]")
40
>>> test_value("Cc1ccc(C(C)C)cc1.F[P-](F)(F)(F)(F)F.NC1C(c2cccnn2)OC(COC(=O)c2ccccc2)C(OC(=O)c2ccccc2)C1OC(=O)c1ccccc1.[Cl][Os+] (mixture of isomers) [Os-7b]")
10
>>> test_value("Cc1c(C)c(C)[c-](C)c1C.F[P-](F)(F)(F)(F)F.N[C@@H]1[C@@H](OC(=O)c2ccccc2)[C@H](OC(=O)c2ccccc2)[C@@H](COC(=O)c2ccccc2)O[C@H]1c1ccccn1.[Cl][Ir+2] [Ir-7a]")
10
>>> test_value("Cc1ccc(C(C)C)cc1.F[P-](F)(F)(F)(F)F.N[C@@H]1[C@@H](OC(=O)c2ccccc2)[C@H](OC(=O)c2ccccc2)[C@@H](COC(=O)c2ccccc2)O[C@H]1c1ccccn1.[Cl][Os+] [Os-7a]")
5
>>> test_value("Cc1c(C)c(C)[c-](C)c1C.F[P-](F)(F)(F)(F)F.NC1C(c2cccnn2)OC(COC(=O)c2ccccc2)C(OC(=O)c2ccccc2)C1OC(=O)c1ccccc1.[Cl][Ir+2] (mixture of isomers) [Ir-7b]")
40

* * *

# System: methicillin-resistant Staphylococcus aureus (MRSA) clinical isolates
# Measurement Description: Broth microdilution MIC, clinical MRSA isolates
# Assay type: cell-based
# Assay Conditions: clinical isolate 24,408 MRSA; 24 h, 0.08–40 μM; read-out: MIC 24,408 MRSA
The following compounds are shown together with reported MIC values.
Recorded Endpoint: MIC (µM)

>>> test_value("Cc1c(C)c(C)[c-](C)c1C.F[P-](F)(F)(F)(F)F.N[C@@H]1[C@@H](OCc2ccccc2)[C@H](OCc2ccccc2)[C@@H](COCc2ccccc2)O[C@H]1c1ccccn1.[Cl][Ir+2]")
10
>>> test_value("Cc1ccc(C(C)C)cc1.F[P-](F)(F)(F)(F)F.N[C@@H]1[C@@H](OCc2ccccc2)[C@H](OCc2ccccc2)[C@@H](COCc2ccccc2)O[C@H]1c1cnccn1.[Cl][Ru+]")
20
>>> test_value("Cc1ccc(C(C)C)cc1.F[P-](F)(F)(F)(F)F.N[C@@H]1[C@@H](OCc2ccccc2)[C@H](OCc2ccccc2)[C@@H](COCc2ccccc2)O[C@H]1c1ccccn1.[Cl][Ru+]")
5

* * *

# Test system: primary human dermal fibroblasts
# Measurement Description: SRB binding assay, cytostasis, 48 h treatment
# Type: cell-based
# Assay Conditions: up to 100 μM, ND = not detectable
Recorded Endpoint: Fibroblast SRB Max Inhibition (%)

>>> test_value("Cc1c(C)c(C)[c-](C)c1C.F[P-](F)(F)(F)(F)F.N[C@@H]1[C@@H](OC(=O)c2ccccc2)[C@H](OC(=O)c2ccccc2)[C@@H](COC(=O)c2ccccc2)O[C@H]1c1ccccn1.[Cl][Rh+2]")
32.56
>>> test_value("Cc1c(C)c(C)[c-](C)c1C.F[P-](F)(F)(F)(F)F.N[C@@H]1[C@@H](OC(=O)c2ccccc2)[C@H](OC(=O)c2ccccc2)[C@@H](COC(=O)c2ccccc2)O[C@H]1c1ccccn1.[Cl][Ir+2]")
56.31
>>> test_value("Cc1ccc(C(C)C)cc1.F[P-](F)(F)(F)(F)F.N[C@@H]1[C@@H](OC(=O)c2ccccc2)[C@H](OC(=O)c2ccccc2)[C@@H](COC(=O)c2ccccc2)O[C@H]1c1ccccn1.[Cl][Os+]")
49.00
>>> test_value("N[C@@H]1[C@@H](OC(=O)c2ccccc2)[C@H](OC(=O)c2ccccc2)[C@@H](COC(=O)c2ccccc2)O[C@H]1c1ccccn1")
26.00
>>> test_value("Cc1ccc(C(C)C)cc1.F[P-](F)(F)(F)(F)F.N[C@@H]1[C@@H](OC(=O)c2ccccc2)[C@H](OC(=O)c2ccccc2)[C@@H](COC(=O)c2ccccc2)O[C@H]1c1ccccn1.[Cl][Ru+]")
56.31

* * *

Listing: MIC of selected compounds
# Test system: vancomycin-resistant Enterococcus (VRE) clinical isolates
# Measurement Description: Broth microdilution MIC, clinical VRE isolates
# Format: cell-based, E. faecium
# Assay Conditions: clinical isolate 25,498 VRE; 24 h, 0.08–40 μM; read-out: MIC 25,498 VRE
Recorded Endpoint: MIC (µM)

>>> test_value("Cc1ccc(C(C)C)cc1.F[P-](F)(F)(F)(F)F.NC1C(c2cccnn2)OC(COC(=O)c2ccccc2)C(OC(=O)c2ccccc2)C1OC(=O)c1ccccc1.[Cl][Ru+] (mixture of isomers)")
10
>>> test_value("Cc1c(C)c(C)[c-](C)c1C.F[P-](F)(F)(F)(F)F.N[C@@H]1[C@@H](OC(=O)c2ccccc2)[C@H](OC(=O)c2ccccc2)[C@@H](COC(=O)c2ccccc2)O[C@H]1c1ccccn1.[Cl][Ir+2]")
40

* * *

Listing of entries alongside the reported MIC.
# Tested on: vancomycin-resistant Enterococcus (VRE) clinical isolates
# Measurement Description: Broth microdilution MIC, clinical VRE isolates
# Type: cell-based, E. faecium
# Assay Conditions: clinical isolate 25,498 VRE; 24 h, 0.08–40 μM; read-out: MIC 25,498 VRE
Recorded Endpoint: MIC (µM)

>>> test_value("Cc1ccc(C(C)C)cc1.F[P-](F)(F)(F)(F)F.N[C@@H]1[C@@H](OC(=O)c2ccccc2)[C@H](OC(=O)c2ccccc2)[C@@H](COC(=O)c2ccccc2)O[C@H]1c1ccccn1.[Cl][Ru+] [Ru-7a]")
5
>>> test_value("Cc1ccc(C(C)C)cc1.F[P-](F)(F)(F)(F)F.NC1C(c2cccnn2)OC(COC(=O)c2ccccc2)C(OC(=O)c2ccccc2)C1OC(=O)c1ccccc1.[Cl][Os+] (mixture of isomers) [Os-7b]")
10
>>> test_value("Cc1c(C)c(C)[c-](C)c1C.F[P-](F)(F)(F)(F)F.N[C@@H]1[C@@H](OCc2ccccc2)[C@H](OCc2ccccc2)[C@@H](COCc2ccccc2)O[C@H]1c1ccccn1.[Cl][Ir+2] [Ir-3a]")
10
>>> test_value("Cc1ccc(C(C)C)cc1.F[P-](F)(F)(F)(F)F.N[C@@H]1[C@@H](OCc2ccccc2)[C@H](OCc2ccccc2)[C@@H](COCc2ccccc2)O[C@H]1c1cnccn1.[Cl][Os+] [Os-3d]")
40
>>> test_value("Cc1c(C)c(C)[c-](C)c1C.F[P-](F)(F)(F)(F)F.NC1C(c2cccnn2)OC(COC(=O)c2ccccc2)C(OC(=O)c2ccccc2)C1OC(=O)c1ccccc1.[Cl][Ir+2] (mixture of isomers) [Ir-7b]")
40
>>> test_value("Cc1ccc(C(C)C)cc1.F[P-](F)(F)(F)(F)F.N[C@@H]1[C@@H](OCc2ccccc2)[C@H](OCc2ccccc2)[C@@H](COCc2ccccc2)O[C@H]1c1cnccn1.[Cl][Ru+] [Ru-3d]")
20
>>> test_value("Cc1ccc(C(C)C)cc1.F[P-](F)(F)(F)(F)F.N[C@@H]1[C@@H](OCc2ccccc2)[C@H](OCc2ccccc2)[C@@H](COCc2ccccc2)O[C@H]1c1ccccn1.[Cl][Ru+] [Ru-3a]")
5
>>> test_value("Cc1ccc(C(C)C)cc1.F[P-](F)(F)(F)(F)F.N[C@@H]1[C@@H](OC(=O)c2ccccc2)[C@H](OC(=O)c2ccccc2)[C@@H](COC(=O)c2ccccc2)O[C@H]1c1ccccn1.[Cl][Os+] [Os-7a]")
5
